TGT: human p21 Activated Kinase 4 (PAK4), PAK4 (gene 10298)
ASSAY_COMMENT: NVS_ENZ_hPAK4: NovaScreen (NVS) Enzymatic Assay for human p21 Activated Kinase 4 (PAK4) (AID 2283189)
Results filed as inconclusive are left out. Calls of active or inactive are those of the source. Rule for the calls: active = hit-call score of the fitted dose curve at least 0.9, where 1 is the maximum; inconclusive = response in the unintended direction; inactive = score below 0.9.
PROPERTY: AC50

Below, each entry is followed by its recorded AC50 result.
COMPOUND	AC50
CC(C)c1cccc(C(C)C)c1N1C(=O)c2ccc(O)cc2C1=O	inactive
CCCCCCCCCCCCc1ccccc1S(=O)(=O)O	18.1 µM (active)
O=C(c1ccc(OCCN2CCCCC2)cc1)c1c(-c2ccc(O)cc2)sc2cc(O)ccc12	inactive
CC(C)(C)c1ccccc1	inactive
Cc1nc(-c2ccccn2)ncc1C(=O)Nn1cc(C)c2cc(F)ccc21	inactive

Look up AC50 for the entries below, preserving their order.
1. FC(F)(F)C(F)(F)C(F)(F)C(F)(F)C(F)(F)C(F)(F)CCI
2. CC/C(=C(\c1ccccc1)c1ccc(OCCN(C)C)cc1)c1ccccc1
3. CN1C(=O)N(c2ccccc2Br)Cc2cnc(Nc3ccc4c(c3)OCC(CO)O4)nc21 (stereo unspecified)
4. CC(C)(c1ccc(O)cc1)c1ccc(O)cc1

["inactive", "inactive", "8.54 µM (active)", "inactive"]

For each listed entry, give its AC50.
1. CCOC(=O)CCC(=O)OCC
2. S=C([S-])NCCNC(=S)[S-].[Mn+2]

1: inactive; 2: 5.91 µM (active)

###

ASSAY_COMMENT: ATG_RORE_CIS: Attagene CIS-FACTORIAL HepG2 Assay for human RAR-related Orphan Receptor Element (RORE) (AID 2282959)
MEASUREMENT_SETUP: HepG2 Attagene cis-factorial RORE reporter, mRNA; actives raise or lower the signal
Active and inactive are the calls of the source. The calls were made as follows: active = hit-call score of the fitted dose curve at least 0.9, where 1 is the maximum; inactive = score below 0.9.
Hi there, use one of these labels in your reply, thanks! active, inactive

COMPOUND	ASSIGNED_CLASS
O=C(CCl)c1ccccc1	inactive

Give the logged outcome of this assay for the following compound: `CCCCCc1cc(O)cc(O)c1` active

Hello, I am checking results. What call was entered for CC(=O)c1cc2c(cc1C)C(C)(C)C(C)CC2(C)C (centres undefined) ? active

# lookup: test call for CCC1CCC(=O)O1 (centres undefined) inactive

I'd appreciate the recorded outcome for `Cc1cc(C)c(C2=C(OC(=O)CC(C)(C)C)C3(CCCC3)OC2=O)c(C)c1` from this test. inactive

What did this assay record as the result for O=P1(NCCCl)OCCCN1CCCl (centres undefined) ? inactive

What did the test return for `CN(N=O)c1ccccc1` ? inactive

Which result was noted for this compound in the test: `Nc1ccc(-c2ccc(N)c(N)c2)cc1N` inactive

// param item: `CCOC(=O)N(C)N=O` ; yields the recorded call inactive

Field: outcome | Entry: `CNC(=O)Oc1cc(C)c(SC)c(C)c1` inactive

What did the test return for `Nc1ccc(Cl)c(Cl)c1` ? inactive

# outcome recorded in this test, key = CC(C)(C)C(O)C(Oc1ccc(-c2ccccc2)cc1)n1cncn1 (centres undefined) inactive

In this assay, the call recorded for `Cc1ncc(C[n+]2csc(CCO)c2C)c(N)n1` was what? inactive

What classification did `O=[N+]([O-])C=Cc1ccccc1` end up with in this test? inactive

Per the records of this test, what outcome belongs to `CCCC=NO` ? inactive

For this compound, state the assay outcome: `CC(C)COP(=O)(OCC(C)C)OCC(C)C` inactive

Returns: the outcome recorded for `CCc1cc(C)cc(CC)c1-c1c(OC(=O)C(C)(C)C)n2n(c1=O)CCOCC2` in this assay. inactive

Answer briefly: the call reported for `CCNCC` in this assay. inactive

Outcome logged for `O=C1C(Cl)=C(Cl)C(=O)C(Cl)=C1Cl` in this assay: inactive

Test call for this compound, please: `C#CC1(O)CCCCC1` inactive

How did this test come out for CCCCCCC1CCOC1=O (centres undefined) ? inactive

Short answer needed: outcome of this test for `CC1(C)[C@H](C(=O)O[C@H](C#N)c2cccc(Oc3ccccc3)c2)[C@@H]1C=C(Br)Br` ? inactive

###

Read-out: TIMP metallopeptidase inhibitor 1 (TIMP1), TIMP1 (gene 7076)
ASSAY_COMMENT: BSK_MyoF_TIMP1: BioMAP Diversity Plus: MyoF Assay for TIMP metallopeptidase inhibitor 1 (TIMP1) Biomarker Activity (AID 2284269)
MEASUREMENT_SETUP: primary human lung fibroblasts
The source made the active and inactive calls. Rule for the calls: active = hit-call score of the fitted dose curve at least 0.9, where 1 is the maximum; inactive = score below 0.9.
Write down the outcome that applies. Available outcomes: 1 for active, 0 for inactive

GIVEN_SMILES	ASSIGNED_CLASS
O=[N+]([O-])C=Cc1ccccc1	1
c1ccc(Nc2ccc3ccccc3c2)cc1	1

Now for a further molecule.
Identify the outcome logged in this assay for the molecule shown: `CNC(=O)Oc1cc(C)c(SC)c(C)c1` 0

###

TGT: human p21 Activated Kinase 4 (PAK4), PAK4 (gene 10298) (UniProt O96013)
Sequence (O96013 whole entry, looked up): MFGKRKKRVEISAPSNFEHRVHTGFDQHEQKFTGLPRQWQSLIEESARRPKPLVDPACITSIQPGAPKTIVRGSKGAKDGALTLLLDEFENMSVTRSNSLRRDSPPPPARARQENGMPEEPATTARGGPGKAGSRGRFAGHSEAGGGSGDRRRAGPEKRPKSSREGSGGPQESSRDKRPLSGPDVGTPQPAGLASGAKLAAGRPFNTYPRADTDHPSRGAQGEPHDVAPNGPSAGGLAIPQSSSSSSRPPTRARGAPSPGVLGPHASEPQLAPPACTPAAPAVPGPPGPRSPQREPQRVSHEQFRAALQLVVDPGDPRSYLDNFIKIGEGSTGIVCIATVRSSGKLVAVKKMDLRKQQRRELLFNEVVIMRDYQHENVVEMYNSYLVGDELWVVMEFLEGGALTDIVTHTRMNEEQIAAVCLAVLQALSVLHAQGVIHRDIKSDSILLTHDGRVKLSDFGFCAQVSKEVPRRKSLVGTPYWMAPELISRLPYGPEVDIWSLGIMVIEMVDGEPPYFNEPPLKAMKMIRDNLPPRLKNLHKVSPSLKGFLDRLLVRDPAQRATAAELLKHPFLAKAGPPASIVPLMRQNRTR
ASSAY_COMMENT: NVS_ENZ_hPAK4: NovaScreen (NVS) Enzymatic Assay for human p21 Activated Kinase 4 (PAK4) (AID 2283189)
Results filed as inconclusive are left out. Activity calls are given as the source filed them. Rule for the calls: active = hit-call score of the fitted dose curve at least 0.9, where 1 is the maximum; inconclusive = response in the unintended direction; inactive = score below 0.9.
PROPERTY: outcome

// solved cases for outcome follow
COMPOUND	RESULT
CC[C@H]1OC(=O)[C@H](C)[C@@H](O[C@H]2C[C@@](C)(OC)[C@@H](O)[C@H](C)O2)[C@H](C)[C@@H](O[C@@H]2O[C@H](C)C[C@H](N(C)C)[C@H]2O)[C@](C)(O)C[C@@H](C)C(=O)[C@H](C)[C@@H](O)[C@]1(C)O	inactive
O=[Si]=O	inactive
COc1ccc(-n2nc(C(F)F)cc2-c2ccc(S(C)=O)cc2)cc1 (stereo not given)	inactive
Cc1cc(Cc2ccc(N)c(C)c2)ccc1N	inactive
c1ccc2ccccc2c1	inactive

Please go through the list and note outcome for each compound.
1. O=C(Oc1ccccc1)c1cccc(C(=O)Oc2ccccc2)c1
2. O=C(O)[C@H](O)[C@@H](O)C(=O)O

["inactive", "inactive"]

###

TGT: Peroxisome proliferator-activated receptor gamma (Homo sapiens)
ASSAY_COMMENT: ATG_PPARg_TRANS: Attagene TRANS-FACTORIAL HepG2 Assay for human Peroxisome Proliferator-activated Receptor-gamma (PPARg) (AID 2283007)
Procedure: ATG_TRANS is a cell-based, multiplexed-readout assay that uses HepG2, a human liver cell line, with measurements taken at 24 hours after chemical dosing in a 24-well plate.ATG_PPARg_TRANS is one of 30 assay component(s) measured or calculated from the ATG_TRANS assay. […] This assay endpoint, ATG_PPARg_TRANS, was analyzed in the positive analysis fitting direction relative to DMSO as the negative control and baseline of activity. […]
Inconclusive results are not listed. Active and inactive are the calls of the source. How the source made its calls: active means hit-call score of the fitted dose curve at least 0.9, where 1 is the maximum; inconclusive means response in the unintended direction; inactive means score below 0.9.
In this exercise, the only acceptable responses are true (active), false (inactive)

Solved entries:
MOLECULE	ASSIGNED_CLASS
C[C@]12CC[C@H]3[C@@H](CC[C@@]45O[C@@H]4C(O)=C(C#N)C[C@]35C)[C@@H]1CC[C@@H]2O	false
O=[N+]([O-])C=Cc1ccccc1	true
SCc1ccco1	true
Nc1ccc([N+](=O)[O-])cc1N	false
Cl/C=C\CCl	false

From here, focus on the item given below.
What is the recorded call for this molecule in the test? `Cc1cc(C)c(C2=C(OC(=O)CC(C)(C)C)C3(CCCC3)OC2=O)c(C)c1` true

###

ASSAY_COMMENT: CCTE_Shafer_MEA_dev_per_burst_interspike_interval: CCTE's Neural Network Formation Assay for Burst Interspike Interval, Shafer Lab (AID 2284044);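 note: mean spike spacing inside bursts as AUC over recordings on days 5 7 9 12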
The source made the active and inactive calls. How the source made its calls: active means hit-call score of the fitted dose curve at least 0.9, where 1 is the maximum; inactive means score below 0.9.

COMPOUND	outcome
COP(=O)(OC)SCN1C(=O)c2ccccc2C1=O	inactive
CCOP(=S)(OCC)SCS(=O)C(C)(C)C (stereo not drawn)	inactive
CCC1(c2ccccc2)C(=O)NC(=O)NC1=O	inactive

###

ASSAY_COMMENT: ATG_NRF2_ARE_CIS: Attagene CIS-FACTORIAL HepG2 Assay for human Nuclear Factor Erythroid 2 Related Factor 2 (NFR2) response to Antioxidant Response Elements (ARE) (AID 2282992)
MEASUREMENT_SETUP: HepG2 Attagene ARE/NRF2 reporter, transcription factor activity; actives raise or lower the signal
Calls of active or inactive are those of the source. How the source made its calls: active means hit-call score of the fitted dose curve at least 0.9, where 1 is the maximum; inactive means score below 0.9.
Assign a class; possible classes are t for active, f for inactive

Answered cases to consult:
GIVEN_SMILES	ASSIGNED_CLASS
CC(C)c1ccc(O)cc1	t
COc1ncc(F)c2nc(S(=O)(=O)Nc3c(F)cccc3F)nn12	f
Nc1ccccc1C(=O)OCCc1ccccc1	t
[CH3][Sn]([Cl])([Cl])[Cl]	t
ClCCCCCCCl	f

Query: recorded result category for `C#CC1(O)CCCCC1` in this test f

Please indicate how the test categorized `O=c1[nH]c(Cl)c(Cl)cc1Cl` . t

// return assay outcome for `C[N+](C)(C)CC(=O)O` f

# lookup: test call for `CC1(C)C(=O)NC(=O)NC1=O` f
